# tested target: hemagglutinin (HA) of influenza virus H1N1 A/California/07/09 (influenza A virus)
# measurement protocol: cell-based or functional assay
observation type: neutralization titer

binder="MD1211 (bispecific antibody) EVQLVESGGGLVQPGGSLRLSCAVSISIFDIYAMDWYRQAPGKQRDLVATSFRDGSTNYADSVKGRFTISRDNAKNTLYLQMNSLKPEDTAVYLCHVSLYRDPLGVAGGMGVYWGKGALVTVSSAAAGGGGSGGGGSGGGGSGGGGSGGGGSGGGGSGGGGSEVQLVESGGGLVQAGGSLKLSCAASGRTYAMGWFRQAPGKEREFVAHINALGTRTYYSDSVKGRFTISRDNAKNTEYLEMNNLKPEDTAVYYCTAQGQWRAAPVAVAAEYEFWGQGTQVTVSS" value_reported="4 nM"
